# credit: patent US20240209076A1

biological target: human IL-6 (human, UniProt P05231 30-212); assay: SPR (Biacore), supernatant antibody on Protein A chip, IL-6 flowed, 37 C
Sequence (P05231 30-212 limits assumed): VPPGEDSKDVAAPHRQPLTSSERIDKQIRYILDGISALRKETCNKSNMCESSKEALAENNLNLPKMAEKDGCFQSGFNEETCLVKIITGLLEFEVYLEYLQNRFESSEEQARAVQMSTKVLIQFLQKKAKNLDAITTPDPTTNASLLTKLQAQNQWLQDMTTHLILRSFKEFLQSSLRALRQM
METRIC NAME: pKd
Scale for pKd: -log10 of concentration given in mol/L; no unit attached.

Solved entries (count: 4):
anti-IL-6 antibody, heavy chain S35W, G66D / light chain M32L, M50D, N52S, M88Q (antibody, human IgG1, V domains shown, Human IgG1) VH: EVQLVESGGGLVQPGGSLRLSCAASGFTFSPFAMWWVRQAPGKGLEWVAKISPGGSWTYYSDTVTDRFTFSLDTSKSTAYLQMNSLRAEDTAVYYCARQLWGYYALDIWGQGTLVTVSS VL: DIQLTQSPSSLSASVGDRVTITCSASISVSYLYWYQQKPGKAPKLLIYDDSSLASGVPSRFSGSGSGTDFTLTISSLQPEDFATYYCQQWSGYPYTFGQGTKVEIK | 7.46
anti-IL-6 antibody, heavy chain T63D, G66D / light chain M32L, M50D, N52S, M88Q (antibody, human IgG1, V domains shown, Human IgG1) VH: EVQLVESGGGLVQPGGSLRLSCAASGFTFSPFAMSWVRQAPGKGLEWVAKISPGGSWTYYSDDVTDRFTFSLDTSKSTAYLQMNSLRAEDTAVYYCARQLWGYYALDIWGQGTLVTVSS VL: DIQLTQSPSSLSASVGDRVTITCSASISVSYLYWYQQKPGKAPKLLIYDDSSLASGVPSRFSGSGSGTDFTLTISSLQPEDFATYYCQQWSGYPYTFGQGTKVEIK | 9.60
anti-IL-6 antibody, heavy chain T63Y, G66D / light chain M32L, M50D, N52S, M88Q (antibody, human IgG1, V domains shown, Human IgG1) VH: EVQLVESGGGLVQPGGSLRLSCAASGFTFSPFAMSWVRQAPGKGLEWVAKISPGGSWTYYSDYVTDRFTFSLDTSKSTAYLQMNSLRAEDTAVYYCARQLWGYYALDIWGQGTLVTVSS VL: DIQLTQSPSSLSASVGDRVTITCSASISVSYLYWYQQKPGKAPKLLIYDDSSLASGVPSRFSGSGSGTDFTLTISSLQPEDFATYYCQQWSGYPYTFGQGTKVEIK | 9.62
anti-IL-6 antibody, heavy chain S35K, G66D / light chain M32L, M50D, N52S, M88Q (antibody, human IgG1, V domains shown, Human IgG1) VH: EVQLVESGGGLVQPGGSLRLSCAASGFTFSPFAMKWVRQAPGKGLEWVAKISPGGSWTYYSDTVTDRFTFSLDTSKSTAYLQMNSLRAEDTAVYYCARQLWGYYALDIWGQGTLVTVSS VL: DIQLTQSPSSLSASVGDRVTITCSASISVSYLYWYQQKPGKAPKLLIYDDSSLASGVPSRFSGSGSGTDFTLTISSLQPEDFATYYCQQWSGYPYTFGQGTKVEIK | 8.58

With those in mind, consider the next binder.
Exercise: For the binder shown here, anti-IL-6 antibody, heavy chain G66D / light chain M32L, M50D, N52S, M88Q (antibody, human IgG1, V domains shown, Human IgG1) VH: EVQLVESGGGLVQPGGSLRLSCAASGFTFSPFAMSWVRQAPGKGLEWVAKISPGGSWTYYSDTVTDRFTFSLDTSKSTAYLQMNSLRAEDTAVYYCARQLWGYYALDIWGQGTLVTVSS VL: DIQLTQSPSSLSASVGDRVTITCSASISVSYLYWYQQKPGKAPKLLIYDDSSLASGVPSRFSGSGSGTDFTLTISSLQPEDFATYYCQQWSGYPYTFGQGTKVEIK , give the reported pKd.
Solution: 9.53
